The measurements presented in this section are drawn from ChEMBL document CHEMBL1201862.

Test system: SNB-19
Test: NCI tumour cell line growth inhibition, 48 h
Active and inactive are the calls of the source. Cut-off read from the data, not from the text of the source: active = GI50 up to about 1.1 µM and inactive = higher.
Classes used: T = active, F = inactive

| COMPOUND | QUALITATIVE_LABEL |
| --- | --- |
| COc1ccc(O)c2c(=O)ccccc12 | F |
| O=C(c1ccccc1)N1CCC(Nc2nccs2)O1 (stereo not given) | F |
| COc1ccc(N(C(=O)NCCO)c2ccccc2)cc1 | F |
| COc1cc(C2C(C(=O)Nc3cc(F)c(F)cc3F)=C(C)NC(C)=C2C(=O)Nc2cc(F)c(F)cc2F)ccc1O | F |
| N#CC1(C#N)[C@@H]2CCC=C(Sc3ccccc3)[C@@H]21 | F |
| c1ccc(Cc2nc(Cc3n[nH]c(Cc4ccccc4)n3)n[nH]2)cc1 | F |
| O=C(CCCCCCCCC(=O)NN1C(=O)/C(=C\c2ccc(O)c(O)c2)SC1c1c(O)ccc2ccccc12)NN1C(=O)C(=Cc2ccc(O)c(O)c2)SC1c1c(O)ccc2ccccc12 (stereo not given) | F |
| CC(=O)O[C@H]1[C@@H](OC2CCCC2(c2ccccc2)c2ccccc2)O[N+]([O-])=C[C@@]12COCc1cc3c(cc12)OCO3 (stereo not given in full) | F |
| OC1CCN(c2c3ccccc3nc3ccccc23)CC1 | F |
| CC(C)[Si](OCC1CC(C[C@H]2CC(C[C@H]3C[C@@H](CO[Si](C(C)C)(C(C)C)C(C)C)OC(C)(C)O3)OC(C)(C)O2)OC(C)(C)O1)(C(C)C)C(C)C (stereo not given in full) | F |
| N#C/C(=C\c1ccc(Br)cc1)c1nc(-c2cc3ccccc3oc2=O)cs1 | F |
| Cc1ccc(NC(=O)CC2Sc3ccccc3NC2=O)c(C)c1 (stereo not given) | F |
| C[C@H](CSC(=O)c1ccccc1)C(=O)N1c2ccccc2C[C@H]1C(=O)O | F |
| N#Cc1cc2c(n(C3OC(CO)C(O)C(O)C3O)c1=S)CCCCCC2 (stereo not given) | F |
| Cc1ccc(N2C(=O)CC(=O)N(NC(=O)C(C)Oc3ccccc3C)C2=S)cc1 (stereo not given) | F |
| CCCCCCCCC[C@@H]1C[C@H](O)[C@H](Cc2ccccc2)N1C(=O)OC(C)(C)C | F |
| CCOP(=O)(OCC)/C(F)=C/c1ccc(F)cc1 | F |
| O=C(NC(Cc1c[nH]cn1)C(=O)N1CCCC1)C1CCCC1 (stereo not given) | F |
| C/C(=N\NC(N)=S)c1cccs1.OB(O)c1ccccc1 | F |
| c1ccc2sc(SSSc3nc4ccccc4s3)nc2c1 | F |
| COc1cccc2c(Nc3ccc(S(=O)(=O)NC(C)=O)cc3)c3ccc([N+](=O)[O-])cc3nc12 | F |
| CC1CC(=O)Nc2ccc(Cl)cc2N1C(=O)CN1CCC(CCCCN(C)C)CC1 (stereo not given) | F |
| Nc1ccn(C=C=CCO)c(=O)n1 | F |
| Clc1ccc(-c2cc3nc4ccccc4nc3o2)cc1 | F |
| C=C1C2C[C@@H]3O[C@H]4C[C@H]5O[C@@]6(C[C@@H]7O[C@]8(C[C@H](C)[C@@H]9O[C@@H]%10CC(C=O)O[C@@H]%10C[C@@H]9O8)C[C@H](C)[C@@H]7O6)C[C@H]5O[C@H]4[C@H](C)[C@H]3OC(=O)C[C@H]3CC[C@@H]4OC5[C@H]6O[C@]7(CC[C@H]8CC(=C)[C@H](CC[C@@H](C[C@H]1C)O2)O8)CC6O[C@@H]5[C@@H](O7)[C@H]4O3 (stereo not given in full) | T |
